Entries annotated with measured protein stability index
B1: SASS6 (parent)
chain: QKELQDVGQSLRIKEQEVCKLQEQ

Variants of: B1
experiment: protein stability index of a GFP-peptide fusion (GPS, HEK-293T) (PSI 1-6); higher = more stable;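 further: lentivirally expressed fusions sorted by FACS into six bins by GFP to DsRed ratio, PSI derived from sequencing read proportions per bin multiplied by bin number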
condition-info: c terminus: a fixed tail appended
The answer should be written as a number, with no unit following it.

Below are worked cases with known answers.
• K20C = 5.11
• S10D = 3.74
• K2Y = 4.98
• K2P = 4.2
• R12A = 5.34
• L4R = 4.96
• Q9A = 5.52
• V7L = 5.14
• K20T = 5.09
• K20M = 5.24

Q: # input variant: S10K ; wanted: its protein stability index
Ans: 5.1

Q: # input variant: V18S ; wanted: its protein stability index
Ans: 5.35

Q: # input variant: K14C ; wanted: its protein stability index
Ans: 5.54

Where these numbers come from: the supplement of paper PMC10567573
